// provenance: patent US7928121B2

A short record of IC50 observed with Cloned Human Serotonin Receptor, Subtype 7 (h5HT7) (Homo sapiens, UniProt P34969) follows.
Sequence (P34969 whole entry): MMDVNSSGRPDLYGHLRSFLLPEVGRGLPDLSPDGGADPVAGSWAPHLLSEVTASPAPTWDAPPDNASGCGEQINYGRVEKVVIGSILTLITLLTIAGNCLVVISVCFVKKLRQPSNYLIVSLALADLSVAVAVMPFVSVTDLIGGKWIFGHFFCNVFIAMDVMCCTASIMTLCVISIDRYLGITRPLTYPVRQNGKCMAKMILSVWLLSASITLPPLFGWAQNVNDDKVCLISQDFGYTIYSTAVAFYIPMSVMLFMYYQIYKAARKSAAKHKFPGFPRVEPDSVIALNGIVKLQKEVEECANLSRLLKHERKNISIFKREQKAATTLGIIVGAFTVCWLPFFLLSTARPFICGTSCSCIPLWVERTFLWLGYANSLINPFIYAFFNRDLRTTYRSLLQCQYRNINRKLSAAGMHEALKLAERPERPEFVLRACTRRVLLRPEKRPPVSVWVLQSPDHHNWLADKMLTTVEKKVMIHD
Counter-ions that a name gives are not always drawn.
Experimental Endpoint: IC50 (nM)

[[record]]
compound = "COc1cc2c(cc1OC)CN(CC1CCN(S(=O)(=O)c3ccccc3Cl)CC1)CC2 [Compound 77, hydrochloride]"
test_result = 41.8

[[record]]
compound = "O=S(=O)(c1ccccc1Br)N1CCC(CN2CCc3ccccc3C2)CC1 [Compound 22, hydrochloride]"
test_result = 16.8

[[record]]
compound = "Cc1cccc(S(=O)(=O)N2CCC(CN3CCc4ccccc4C3)CC2)c1 [Compound 5, hydrochloride]"
test_result = 63

[[record]]
compound = "O=S(=O)(c1cc(F)c(F)cc1Cl)N1CCC(CN2CCc3ccccc3C2)CC1 [Compound 6, hydrochloride]"
test_result = 18.2

